The origin of these recorded values is ChEMBL document CHEMBL1150887.

# Test Name: Antioxidant activity against cupric ion-induced lipid peroxidation in human LDL by TBA assay
# Assay type: functional
Endpoint Name: IC50 (nM)
Value expressed in nM; do not type the unit.

For orientation, consider the following solved cases.
{"Compound": "Oc1ccc(/C=C/c2cc(O)cc(O)c2)cc1", "Units Label": "nM", "IC50": 2400}
{"Compound": "Oc1ccc(/C=C\\c2cc(O)cc(O)c2)cc1 [CIS-RESVERATROL]", "Units Label": "nM", "IC50": 18000}

Consider now this further compound.
Inquiry: I am curious: what IC50 value has been reported for `Oc1cc(O)cc(/C=C/c2ccc(O)c(O)c2)c1` ?
Reply text: 1800
